# TARGET: Cytochrome P450 1A2 (Homo sapiens)
# Sequence (P05177 whole entry): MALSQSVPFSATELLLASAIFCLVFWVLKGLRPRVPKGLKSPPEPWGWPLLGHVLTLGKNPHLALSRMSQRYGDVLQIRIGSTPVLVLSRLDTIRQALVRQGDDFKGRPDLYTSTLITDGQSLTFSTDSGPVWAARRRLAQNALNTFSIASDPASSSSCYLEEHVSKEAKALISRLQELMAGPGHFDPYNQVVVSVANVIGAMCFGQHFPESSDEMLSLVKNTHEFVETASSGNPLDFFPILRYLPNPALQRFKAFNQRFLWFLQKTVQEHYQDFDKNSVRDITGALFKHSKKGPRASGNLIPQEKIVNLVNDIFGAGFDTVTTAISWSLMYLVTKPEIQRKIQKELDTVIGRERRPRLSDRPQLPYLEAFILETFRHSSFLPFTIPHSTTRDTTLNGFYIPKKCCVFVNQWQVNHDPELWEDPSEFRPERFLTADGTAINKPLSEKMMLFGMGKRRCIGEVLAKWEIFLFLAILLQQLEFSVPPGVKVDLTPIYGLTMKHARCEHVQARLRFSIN
# ASSAY NAME: Inhibition of CYP1A2 in human liver microsomes in presence of NADPH
# Assay type: ADME
RECORDED METRIC: IC50

- COCCNc1cc(O)c2c(=O)c3c(-c4nccs4)[nH]c(Cc4ccc5c(c4)OCO5)c3oc2c1: > 10 µM

====

# TARGET: cGMP-specific 3',5'-cyclic phosphodiesterase (Homo sapiens)
# ASSAY NAME: Inhibition of human PDE5A1 catalytic domain (535 to 860 residues) expressed in Escherichia coli BL21 using 3H-cGMP as substrate after 15 mins by liquid scintillation counting
RECORDED METRIC: log10 IC50 (log10 of the value in nM)

- O=c1c2c(F)cc(Br)cc2oc2c(Cc3ccc4c(c3)OCO4)[nH]c(-c3nccs3)c12: 0.37
- O=c1c2cccc(Cl)c2oc2c(Cc3ccc4c(c3)OCO4)[nH]c(-c3nccs3)c12: 0.32
- CN1CCN(CCNc2cc(O)c3c(=O)c4c(-c5nccs5)[nH]c(Cc5ccc6c(c5)OCO6)c4oc3c2)CC1: -0.41
- O=c1c2ccc(Br)cc2oc2c(Cc3ccc4c(c3)OCO4)[nH]c(-c3nccs3)c12: 0.20
- CNc1cc(O)c2c(=O)c3c(-c4nccs4)[nH]c(Cc4ccc5c(c4)OCO5)c3oc2c1: -0.28
- O=c1c2cc(Cl)ccc2oc2c(Cc3ccc4c(c3)OCO4)[nH]c(-c3nccs3)c12: 0.98
- O=c1c2ccc(Cl)cc2oc2c(Cc3ccc4c(c3)OCO4)[nH]c(-c3nccs3)c12: 0.42
- O=c1c2cc(Cl)cc(Br)c2oc2c(Cc3ccc4c(c3)OCO4)[nH]c(-c3nccs3)c12: 0.48

====

# ASSAY NAME: Intrinsic clearance in rat liver microsomes at 0.5 uM
# Format: ADME, microsome
RECORDED METRIC: Intrinsic clearance (CLint) (µL/min/mg)

* O=c1c2c(F)cccc2oc2c(Cc3ccc4c(c3)OCO4)[nH]c(-c3nccs3)c12 | 145.6
* CCCc1nn(C)c2c(=O)[nH]c(-c3cc(S(=O)(=O)N4CCN(C)CC4)ccc3OCC)nc12 | 258.2
* CN1CCN(CCNc2cc(O)c3c(=O)c4c(-c5nccs5)[nH]c(Cc5ccc6c(c5)OCO6)c4oc3c2)CC1 | 263.4

====

# TARGET: cAMP and cAMP-inhibited cGMP 3',5'-cyclic phosphodiesterase 10A (Homo sapiens, UniProt Q9Y233)
# Sequence (Q9Y233 whole entry): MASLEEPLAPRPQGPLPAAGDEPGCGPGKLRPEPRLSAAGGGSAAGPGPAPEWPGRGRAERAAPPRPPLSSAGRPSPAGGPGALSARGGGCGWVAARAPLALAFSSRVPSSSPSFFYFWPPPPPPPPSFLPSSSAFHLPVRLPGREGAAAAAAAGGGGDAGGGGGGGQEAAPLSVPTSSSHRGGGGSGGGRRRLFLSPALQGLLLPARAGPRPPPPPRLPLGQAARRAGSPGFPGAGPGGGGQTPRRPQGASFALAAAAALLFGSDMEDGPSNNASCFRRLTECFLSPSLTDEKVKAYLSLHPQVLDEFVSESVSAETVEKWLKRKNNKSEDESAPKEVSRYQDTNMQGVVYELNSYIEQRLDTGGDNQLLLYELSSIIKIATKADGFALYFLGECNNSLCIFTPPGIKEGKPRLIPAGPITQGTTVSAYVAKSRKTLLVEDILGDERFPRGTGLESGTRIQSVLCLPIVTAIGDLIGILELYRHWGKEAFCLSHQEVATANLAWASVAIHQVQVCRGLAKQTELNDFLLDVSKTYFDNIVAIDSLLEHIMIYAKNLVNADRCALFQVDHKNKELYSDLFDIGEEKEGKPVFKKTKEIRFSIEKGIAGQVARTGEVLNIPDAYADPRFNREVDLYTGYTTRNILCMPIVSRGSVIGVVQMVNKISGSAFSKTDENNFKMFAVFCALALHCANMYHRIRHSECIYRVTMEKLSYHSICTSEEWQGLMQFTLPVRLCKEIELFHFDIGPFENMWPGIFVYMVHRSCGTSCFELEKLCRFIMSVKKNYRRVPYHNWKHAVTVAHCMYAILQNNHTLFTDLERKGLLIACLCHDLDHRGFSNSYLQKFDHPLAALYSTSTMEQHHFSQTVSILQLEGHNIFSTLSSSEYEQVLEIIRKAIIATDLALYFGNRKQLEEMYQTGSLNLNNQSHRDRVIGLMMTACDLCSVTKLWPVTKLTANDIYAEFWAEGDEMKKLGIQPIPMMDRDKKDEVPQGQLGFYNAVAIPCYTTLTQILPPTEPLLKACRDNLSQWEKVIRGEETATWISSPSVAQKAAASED
RECORDED METRIC: IC50 (µM)

• COCCNc1cc(O)c2c(=O)c3c(-c4nccs4)[nH]c(Cc4ccc5c(c4)OCO5)c3oc2c1 = 0.046

The reported measurements were obtained from ChEMBL document CHEMBL4196172.
